B1: Peroxisome proliferator-activated receptor delta, residues 71 to 145; numbered along this chain, Q03181 (parent)
chain: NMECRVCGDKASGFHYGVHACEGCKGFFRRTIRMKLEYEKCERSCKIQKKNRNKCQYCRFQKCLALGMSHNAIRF

variants of: B1; assay: abundance fitness (aPCA) (normalised: wild type 0, dead -1); higher = more abundant; growth selection in yeast, the domain comes from the species named; details: Homo sapiens
Exercise: state measured abundance fitness for each of the variants provided.
Answers are plain numbers.

Some variants with recorded abundance fitness:
VARIANT IDENTIFIER: M68D
ASSAY METRIC: abundance fitness
VALUE REPORTED: -0.696

VARIANT IDENTIFIER: E42D
ASSAY METRIC: abundance fitness
VALUE REPORTED: -0.16

VARIANT IDENTIFIER: L36Y
ASSAY METRIC: abundance fitness
VALUE REPORTED: -0.047

Need abundance fitness for each of these variants.
1. F27I
2. E22L
3. H19V

Result:
1: -0.994; 2: -0.508; 3: -0.083
